Hey, just so you know, these numbers are from the supplement of paper PMC7877785.

Each item that follows carries a reported self-splicing fitness (ln).
Assay: self-splicing fitness, log relative to wild type (ln ratio); higher = more splicing; Tetrahymena group I intron in knt gene, E. coli kanamycin selection, DiMSum; sequences stand for … in CUCUCU…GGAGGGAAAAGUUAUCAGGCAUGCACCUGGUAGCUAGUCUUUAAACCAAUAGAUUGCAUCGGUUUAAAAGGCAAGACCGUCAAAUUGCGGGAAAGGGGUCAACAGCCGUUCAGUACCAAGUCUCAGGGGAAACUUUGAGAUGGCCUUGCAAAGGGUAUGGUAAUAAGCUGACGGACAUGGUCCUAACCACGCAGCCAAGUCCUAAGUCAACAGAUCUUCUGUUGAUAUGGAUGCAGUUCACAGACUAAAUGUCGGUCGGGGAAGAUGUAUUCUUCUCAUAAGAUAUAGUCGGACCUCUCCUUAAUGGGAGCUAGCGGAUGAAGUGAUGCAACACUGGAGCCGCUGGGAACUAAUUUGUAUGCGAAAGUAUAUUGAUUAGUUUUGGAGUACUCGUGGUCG;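 also: selection with 25 µg/mL kanamycin versus none on LB agar overnight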
Conditions: 37 °C
Reply with the value as a number alone.

- ENTRY_SEQUENCE: "GGGGAGCAAUAUUACGUUCC"
  RECORDED_VALUE: -2
- ENTRY_SEQUENCE: "GUUGAGCAAUAUUACGCUGU"
  RECORDED_VALUE: -2.15
- ENTRY_SEQUENCE: "GACCAGCAAUAUUACGGGGC"
  RECORDED_VALUE: -2.14
- ENTRY_SEQUENCE: "ACUAAGCAAUAUUACGACAA"
  RECORDED_VALUE: -0.52
- ENTRY_SEQUENCE: "GACUAGCAAUAUUACGCUUU"
  RECORDED_VALUE: -1.66

Value of self-splicing fitness (ln) reported for the sequence `GGAUAGCAAUAUUACGACGG` is -2.87

Value of self-splicing fitness (ln) reported for the sequence `UCAGAGCAAUAUUACGGUGG` is -1.32

Value of self-splicing fitness (ln) reported for the sequence `GGUUAGCAAUAUUACGUUAC` is -1.47

Value of self-splicing fitness (ln) reported for the sequence `GAGCAGCAAUAUUACGGGCG` is -0.811

Value of self-splicing fitness (ln) reported for the sequence `GCUUAGCAAUAUUACGGCGA` is -1.33

Value of self-splicing fitness (ln) reported for the sequence `GAGAAGCAAUAUUACGCGAG` is -0.918

Value of self-splicing fitness (ln) reported for the sequence `AGGAAGCAAUAUUACGUACU` is -0.989

###

Test: self-splicing fitness, log relative to wild type (ln ratio); higher = more splicing; Tetrahymena group I intron in knt gene, E. coli kanamycin selection, DiMSum; sequences stand for … in CUCUCU…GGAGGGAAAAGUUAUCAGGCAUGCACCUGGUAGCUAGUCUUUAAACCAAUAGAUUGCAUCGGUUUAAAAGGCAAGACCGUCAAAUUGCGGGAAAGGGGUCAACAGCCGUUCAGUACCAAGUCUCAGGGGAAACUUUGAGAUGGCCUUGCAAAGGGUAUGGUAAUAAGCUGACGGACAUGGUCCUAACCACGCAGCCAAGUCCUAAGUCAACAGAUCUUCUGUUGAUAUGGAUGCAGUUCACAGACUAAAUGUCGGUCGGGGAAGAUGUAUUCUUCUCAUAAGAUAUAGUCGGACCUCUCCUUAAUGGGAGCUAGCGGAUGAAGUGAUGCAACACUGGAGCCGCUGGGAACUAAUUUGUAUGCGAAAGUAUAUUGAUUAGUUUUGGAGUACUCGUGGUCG
Conditions: 30 °C
ASSAY_METRIC: self-splicing fitness (ln)
Reply with the value as a number alone.

Study these solved cases before continuing.
- ENTRY_SEQUENCE: "CUUUAGCAAUAUUACGAAAU"
  self-splicing fitness (ln): -2.94
- ENTRY_SEQUENCE: "CUCUAGCAAUAUUACGCGUA"
  self-splicing fitness (ln): -4.1

Value of self-splicing fitness (ln) reported for the sequence `AAAGAGCAAUAUUACGGUAU` is -3.02

Value of self-splicing fitness (ln) reported for the sequence `AUCGAGCAAUAUUACGGAAU` is -3.47

###

Each item that follows carries a reported self-splicing fitness (ln).
Assay: self-splicing fitness, log relative to wild type (ln ratio); higher = more splicing; Tetrahymena group I intron in knt gene, E. coli kanamycin selection, DiMSum; sequences stand for … in CUCUCU…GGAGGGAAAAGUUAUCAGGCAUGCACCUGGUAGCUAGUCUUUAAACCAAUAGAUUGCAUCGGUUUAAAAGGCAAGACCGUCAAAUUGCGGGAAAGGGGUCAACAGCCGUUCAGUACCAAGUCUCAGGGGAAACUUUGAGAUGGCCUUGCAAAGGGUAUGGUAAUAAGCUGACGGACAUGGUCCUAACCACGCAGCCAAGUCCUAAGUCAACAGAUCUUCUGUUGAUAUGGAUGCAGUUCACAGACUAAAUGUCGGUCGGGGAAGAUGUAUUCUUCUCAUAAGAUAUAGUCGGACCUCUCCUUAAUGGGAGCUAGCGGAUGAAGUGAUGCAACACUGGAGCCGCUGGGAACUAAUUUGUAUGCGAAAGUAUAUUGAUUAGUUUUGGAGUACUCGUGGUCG
Conditions: 37 °C
Reply with the value as a number alone.

- ENTRY_SEQUENCE: "ACCAAGCAAUAUUACGGAAC"
  self-splicing fitness (ln): -1.99
- ENTRY_SEQUENCE: "UAUCAGCAAUAUUACGCCAU"
  self-splicing fitness (ln): -1.55
- ENTRY_SEQUENCE: "CUCGAGCAAUAUUACGCGGC"
  self-splicing fitness (ln): -3.16
- ENTRY_SEQUENCE: "AGGAAGCAAUAUUACGCGGA"
  self-splicing fitness (ln): -1.29
- ENTRY_SEQUENCE: "GGAAAGCAAUAUUACGGAAU"
  self-splicing fitness (ln): -1.1

Value of self-splicing fitness (ln) reported for the sequence `AAGGAGCAAUAUUACGAAGU` is -2.57

Value of self-splicing fitness (ln) reported for the sequence `GCGCAGCAAUAUUACGCUAC` is -1.71

Value of self-splicing fitness (ln) reported for the sequence `AUGGAGCAAUAUUACGUCGC` is -1.78

Value of self-splicing fitness (ln) reported for the sequence `CGUAAGCAAUAUUACGACUU` is -1.35

Value of self-splicing fitness (ln) reported for the sequence `CUGUAGCAAUAUUACGCGUU` is -2.26

Value of self-splicing fitness (ln) reported for the sequence `GAGUAGCAAUAUUACGUGAA` is -1.95

Value of self-splicing fitness (ln) reported for the sequence `ACGAAGCAAUAUUACGAACG` is -0.288

Value of self-splicing fitness (ln) reported for the sequence `GAUGAGCAAUAUUACGGGAA` is -3.7

Value of self-splicing fitness (ln) reported for the sequence `CAGGAGCAAUAUUACGGGGA` is -3.47

Value of self-splicing fitness (ln) reported for the sequence `ACCGAGCAAUAUUACGCAGA` is -2.51

Value of self-splicing fitness (ln) reported for the sequence `CGGAAGCAAUAUUACGUUUA` is -2.06

###

Each item that follows carries a reported self-splicing fitness (ln).
Experiment: self-splicing fitness, log relative to wild type (ln ratio); higher = more splicing; Tetrahymena group I intron in knt gene, E. coli kanamycin selection, DiMSum; sequences stand for … in CUCUCU…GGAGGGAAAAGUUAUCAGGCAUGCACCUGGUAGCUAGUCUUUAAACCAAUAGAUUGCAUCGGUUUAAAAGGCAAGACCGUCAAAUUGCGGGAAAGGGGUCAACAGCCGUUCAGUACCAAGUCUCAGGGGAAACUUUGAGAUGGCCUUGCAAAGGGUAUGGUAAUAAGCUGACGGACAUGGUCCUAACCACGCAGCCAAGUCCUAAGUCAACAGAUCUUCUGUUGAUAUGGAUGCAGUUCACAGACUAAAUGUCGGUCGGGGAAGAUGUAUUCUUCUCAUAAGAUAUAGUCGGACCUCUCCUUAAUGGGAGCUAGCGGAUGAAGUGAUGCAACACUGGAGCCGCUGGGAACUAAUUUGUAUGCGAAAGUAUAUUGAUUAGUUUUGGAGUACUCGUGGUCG
Details: 30 °C

- ENTRY_SEQUENCE: "ACCUAGCAAUAUUACGUAGC"
  self-splicing fitness (ln): -1.81
- ENTRY_SEQUENCE: "UAACAGCAAUAUUACGACCG"
  self-splicing fitness (ln): -0.596
- ENTRY_SEQUENCE: "GUAAAGCAAUAUUACGACAC"
  self-splicing fitness (ln): 0.603
- ENTRY_SEQUENCE: "UGCUAGCAAUAUUACGUUGU"
  self-splicing fitness (ln): -2.59
- ENTRY_SEQUENCE: "CGAAAGCAAUAUUACGAAUC"
  self-splicing fitness (ln): -2.03

Value of self-splicing fitness (ln) reported for the sequence `AUGUAGCAAUAUUACGGCUU` is 0.168

Value of self-splicing fitness (ln) reported for the sequence `CACCAGCAAUAUUACGGCUC` is -1.44

Value of self-splicing fitness (ln) reported for the sequence `CUACAGCAAUAUUACGUUAA` is -3.48
